experimental.protocol: NCI Yeast Anticancer Drug Screen. Data for the bub3 strain (AID 167)
experimental.context: S. cerevisiae bub3 mutant strain, at 50.0 µM (retest, dose inferred, filed as 5.0), active compounds read high
Compounds without any hit were thinned out: in the full panel of roughly 79,000, 15% have a hit.
property.label: growth inhibition (%)

molecule	property.label	result
CCCNCC/C=C/[Si](C)(C)C	growth inhibition	99
Cc1ccnc2sc3ccccc3c(=O)c12	growth inhibition	92
CCCCCCC/C=C/C(=O)OC1C(OC2C(OC(CCCCCCC)CC(=O)OC(CCCCCCC)CC(=O)O)OC(C)C(O)C2O)OC(C)C(O)C1O (stereo unspecified)	growth inhibition	94
CC(=O)OC1COC(n2nnc(C#N)c2C#N)C(OC(C)=O)C1OC(C)=O (stereo unspecified)	growth inhibition	4
Cc1cc(C(=O)c2ccccc2)ccc1O	growth inhibition	3
Clc1ccc(SSN2CCCCC2)cc1	growth inhibition	70
O=[N+]([O-])c1cc([N+](=O)[O-])c2ccccc2c1O	growth inhibition	87
O=Cc1cc(-c2ccccc2)n(-c2ccccc2)c1-c1ccccc1	growth inhibition	9
Nc1nc(N)c(-c2cccc(C(F)(F)F)c2)c(Cc2cccc(C(F)(F)F)c2)n1	growth inhibition	95
Cc1[nH]nc(C(F)(F)F)c1N=NN1CCOCC1	growth inhibition	99
CN(CCC1CCCCC1)CCC1CCCCC1	growth inhibition	97
O=C1C=CC(=O)c2ccc(=O)ccc21	growth inhibition	99
COC(=O)c1c(/C(=N/Nc2ccc([N+](=O)[O-])cc2)[N+](=O)[O-])ssc1=N	growth inhibition	40
CN(Cc1cc(Cl)cc(Cl)c1O)Cc1c(O)ccc2ccccc12	growth inhibition	100
Cc1sc(Cc2ccccc2)nc1-c1ccc(N=Cc2ccc(N(CCOS(C)(=O)=O)CCOS(C)(=O)=O)cc2)cc1	growth inhibition	94
O=[N+]([O-])c1ccccc1N=Nc1c(O)[nH]c2cccc(C(F)(F)F)c12	growth inhibition	77
